system: M14 melanoma; test: NCI-60 one-dose screen, 48 h; conditions: 10 µM unless noted
Compounds without any hit were thinned out: in the full panel of roughly 83,000, 20% have a hit. Calls of active or inactive are those of the source. How the source made its calls: active means growth percent below 10; inactive means the rest.
Reply using exactly one outcome from active, inactive

In: Recorded test outcome, item CC(=O)N1N=C(c2ccc3c(c2)OCO3)CC1c1c(C)nn(-c2ccccc2)c1N(C)Cc1ccccc1 (stereo unspecified)
Out: inactive

In: Same question, O=C(c1ccc(N2CCOCC2)cc1[N+](=O)[O-])N1CCOCC1 this time
Out: inactive

In: Now consider O=C1C(=O)/C(=C/c2ccccc2)CCCCCC/C1=C/c1ccccc1 .
Out: inactive

In: And what about the molecule COc1cccc(/C=N/Nc2nc3ccccc3s2)c1OC ?
Out: inactive

In: Also CN(C)c1ccc(-n2nc3ccccc3n2)cc1 ?
Out: inactive

In: Moving on to the next molecule: COc1c(Br)cc(C(c2cc(Br)c(OC)c(Br)c2)c2ccccc2C(=O)O)cc1Br
Out: inactive

----------
system: PC-3 prostate; experiment: NCI-60 one-dose screen, 48 h; conditions: 10 µM unless noted
Compounds without any hit were thinned out: in the full panel of roughly 83,000, 20% have a hit. Activity calls are given as the source filed them. How the source made its calls: active means growth percent below 10; inactive means the rest.
Tick one outcome: yes (1) for active, no (0) for inactive

Example entries begin here.
> print(dat)
                  compound.structure.string  label.class
1  COc1cc(/C=C/c2cc(/C=C/c3ccc(O)c(OC)c3)n(C(=O)c3ccc(Cl)cc3)n2)ccc1O      yes (1)
2                   Cc1cc(-c2ccccc2)cc(C)n1       no (0)
3                  CCCCCCCSc1ncnc2[nH]ncc12       no (0)
4         O[N+]1=CC=CCC1=S.On1ccccc1=S.[Zn]      yes (1)
5  O=C(c1ccccc1)c1ccc(Oc2ccc([N+](=O)[O-])cc2[N+](=O)[O-])cc1       no (0)

In: What did the test return for Cc1nn(-c2ccccc2)c2nc(N)c(C3=NCCO3)nc12 ?
Out: no (0)

In: One more molecule: COCCOCCOCCOCCOc1ccc2c(c1)C(=O)c1nc3ncccc3c(=O)n1-2
Out: yes (1)

In: Same thing, different molecule: O=C1C=CC(=O)N1c1ccccc1N1C(=O)C=CC1=O
Out: no (0)

In: Try this molecule too: NS(=O)(=O)N(c1cc(C(F)(F)F)cc(C(F)(F)F)c1)C1CCN(Cc2ccc(C(F)(F)F)cc2)CC1
Out: no (0)

In: And what about the molecule COc1cc(OC)c2c(c1Cl)O[C@]1(C2=O)C(OCc2ccccc2)=CC(=O)C[C@H]1C ?
Out: yes (1)

----------
tested on: MCF7 breast; test: NCI-60 one-dose screen, 48 h; conditions: 10 µM unless noted
This is part of a sample that, as a whole, favours compounds with a hit. Of some 83,000 tested, about 20% had one in any assay. Activity calls are given as the source filed them. The calls were made as follows: active = growth percent below 10; inactive = the rest.
Returns: one label drawn from T = active, F = inactive

Use these answered entries as a reference point.
Molecule	Label class
COC(=O)c1cc2oc(/C=N\NC(=O)c3cc4oc(C)c(C)c4[nH]3)cc2[nH]1	F
CCSc1nc(-c2ccco2)n2nc(-c3ccco3)cc2n1	F

In: Hi, do you know how COC(=O)[C@H](CCCCNC(=O)OCc1ccccc1)NC(=O)[C@@H](NC(=O)Nc1cc(C(F)(F)F)cc(C(F)(F)F)c1)C(C)C came out in this test?
Out: T

In: // query: Cc1cc(C)c(C(=O)c2cccs2)c(C)c1
Out: F

In: Okay, and CC1=C([Se]CC(OC(=O)[C@@H](CSSC(C)(C)C)NC(=O)C(C)(C)C)C(=O)NCCCCCC(=O)OCc2ccccc2)C(=O)c2ccccc2C1=O (stereo not given in full) ?
Out: F

In: Now consider CCCCCN(CCCCC)CCCNc1c2c(nc3ccc(Cl)cc13)CCCC2 and answer again.
Out: F

In: Queued: C=CCNC(=O)/C(=C/c1cccc([N+](=O)[O-])c1)NC(=O)c1ccccc1
Out: F

In: What do you have for COC(=O)C1CCN(S(=O)(=O)c2ccc(-c3ccccc3)cc2)CC1 ?
Out: F

In: NC(=NCCCCCCN=C(N)/N=C(\N)Nc1ccc(Cl)cc1)/N=C(\N)Nc1ccc(Cl)cc1 , same question.
Out: T

In: Repeat with CCCCCCCCCCCCC1CCCC(C)C1 (stereo not given)
Out: F

----------
Listed here are molecules together with their documented growth.
tested on: SNB-19 CNS; test: NCI-60 one-dose screen, 48 h (100 = growth as untreated, 0 = no growth, -100 = all killed); settings: 10 µM unless noted
Compounds without any hit were thinned out: in the full panel of roughly 83,000, 20% have a hit. Activity calls are given as the source filed them. Rule for the calls: active = growth percent below 10; inactive = the rest.

In: Find the recorded growth belonging to Cc1ccccc1NC(=O)N/C(N)=N/c1nc2ccccc2s1 and report it.
Out: 31.8% (inactive)

In: How about this molecule: CC(NNC(=S)N1CCCCCC1)c1ccc2ccccc2n1 (configuration not stated)
Out: 44.1% (inactive)

----------
Reported growth values for a set of compounds
system: MOLT-4 leukemia; assay: NCI-60 one-dose screen, 48 h (100 = growth as untreated, 0 = no growth, -100 = all killed); conditions: 10 µM unless noted
The panel holds about 83,000 compounds, 20% with a hit somewhere; the sample as a whole holds those more often. The source made the active and inactive calls. The calls were made as follows: active = growth percent below 10; inactive = the rest.

Recorded growth, per entry:
> print(dat)
                                   compound      system.name  recorded.endpoint   measured.result
1  O=C(COc1ccc(/C=C2\Cc3ccccc3C2=O)cc1)c1ccc(Cl)cc1  MOLT-4 leukemia             growth  95.9% (inactive)
2  COc1cc(/C=C/C(=O)c2c(C)n([O-])c3ccccc3[n+]2=O)cc(OC)c1OC  MOLT-4 leukemia             growth   -64.5% (active)

In: Quick check: growth of O=C(Nc1ccccc1)c1cc(-n2cnc([N+](=O)[O-])c2)cc(-n2cnc([N+](=O)[O-])c2)n1 ?
Out: 94.2% (inactive)

In: Queued: CCOC(=O)OCC(=O)[C@@]1(O)CC[C@H]2[C@@H]3CCC4=CC(=O)CC[C@]4(C)[C@H]3[C@@H](O)C[C@@]21C
Out: 93.2% (inactive)

In: Queued: Cc1nn2c(/C=C3/C(=O)Nc4cc(Cl)ccc43)c(-c3ccccc3)nc2s1
Out: 13.1% (inactive)

In: # iterate: Nc1ccc(N=Nc2ccccc2)cc1[N+](=O)[O-]
Out: 74.1% (inactive)

In: Also O=c1c2ccccc2c2nccn2c2cc(Cl)ccc12 ?
Out: -54.9% (active)

In: Query Nc1ncnc2c1CN(Cc1ccccc1)CC2 next
Out: 102% (inactive)

In: And for COc1ccc2ncccc2c1Cc1c(OC)ccc2ncccc12 ?
Out: 57.9% (inactive)

In: Next: CNc1nc(NC2CCCC2)nc(Sc2ccc(OC)cc2)n1
Out: -5.92% [100 µM] (active)

----------
test system: MALME-3M melanoma; assay: NCI-60 one-dose screen, 48 h (100 = growth as untreated, 0 = no growth, -100 = all killed); details: 10 µM unless noted
Compounds without any hit were thinned out: in the full panel of roughly 83,000, 20% have a hit.
Let's look at some molecules and their measured growth.
The reply should contain only the number, in %.

Below are worked cases with known answers.
> print(dat)
                                   molecule  recorded.endpoint  measured.result
1    C/C(=C\CCc1ccsc1)CC/C=C(\C)CCCN1CCSCC1             growth             98.4
2    CC(=O)/C(=C/c1ccc(Cl)cc1)C(=O)c1ccccc1             growth              103
3  Cc1ccc(S(=O)(=O)N2CCN(C(=O)CSc3nc4ccc(C)cc4[nH]3)CC2)cc1             growth              126
4  COCCOCCOCCOCCOc1ccc2c(c1)C(=O)c1nc3ncccc3c(=O)n1-2             growth            -96.2
5  CC(=O)c1ccc(NS(=O)(=O)c2ccc([N+](=O)[O-])cc2)cc1             growth              115

In: // lookup growth for CCOC1Oc2ccccc2C(=O)/C1=N/c1nccs1 (stereo unspecified)
Out: 51.9

----------
test system: RPMI-8226 leukemia; assay: NCI-60 one-dose screen, 48 h (100 = growth as untreated, 0 = no growth, -100 = all killed); conditions: 10 µM unless noted
About 83,000 compounds went through this panel and 20% of them were active in at least one assay; those are over-represented in the sample as a whole.
Recorded endpoint: growth (%)
Return type: number; implicit unit %.

In: Reported growth, molecule CC(=O)c1nn(-c2ccccc2)c(=Nc2ccccc2)cc1C : ____
Out: 100

In: Same read-out for CC1CC=CCC1C1OCC(C)(C)CO1 (stereo unspecified) ?
Out: 97.2
